# testedSystem: HA of A/Shan dong/9/93 (H3N2) (influenza A virus)
# testDetails: cell-based or functional assay
Assign Neutralization (IC50) to each entry below.
# output: bare number, implied unit nM

Ask: I have this binder here, FY1 IgG (antibody, V domains shown) VH: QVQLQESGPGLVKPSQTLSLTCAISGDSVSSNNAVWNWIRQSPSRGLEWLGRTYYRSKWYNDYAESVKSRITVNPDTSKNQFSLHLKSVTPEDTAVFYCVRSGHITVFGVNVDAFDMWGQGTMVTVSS VL: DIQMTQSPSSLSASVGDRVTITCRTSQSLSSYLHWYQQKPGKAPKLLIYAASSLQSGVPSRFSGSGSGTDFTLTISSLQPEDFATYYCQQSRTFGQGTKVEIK , and I need its recorded Neutralization (IC50).
Reply: 34.6

Ask: One more binder: GL20 IgG (antibody, V domains shown) VH: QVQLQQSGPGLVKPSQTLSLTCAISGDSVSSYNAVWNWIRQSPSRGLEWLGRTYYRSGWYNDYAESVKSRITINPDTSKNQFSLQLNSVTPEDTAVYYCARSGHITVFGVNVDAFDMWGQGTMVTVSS VL: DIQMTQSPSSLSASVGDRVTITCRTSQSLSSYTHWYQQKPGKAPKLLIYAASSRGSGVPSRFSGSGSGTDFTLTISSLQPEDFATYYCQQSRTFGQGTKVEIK
Reply: 19.2
